Sourced from paper PMC8809517

Target: T1, GFP-9S library array, motif 4 ND N98Y;D124T (synthetic construct, N98Y;D124T)
T1 chain: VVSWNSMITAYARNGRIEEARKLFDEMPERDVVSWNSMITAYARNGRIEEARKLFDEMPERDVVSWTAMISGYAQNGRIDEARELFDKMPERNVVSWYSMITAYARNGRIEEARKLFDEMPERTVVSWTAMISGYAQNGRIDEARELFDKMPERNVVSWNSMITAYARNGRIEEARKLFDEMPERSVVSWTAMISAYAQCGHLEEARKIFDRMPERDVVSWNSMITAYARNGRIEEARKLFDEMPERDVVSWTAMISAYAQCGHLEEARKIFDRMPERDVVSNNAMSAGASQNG
Assay: high-throughput RNA pulldown from lysate on Ni-NTA beads; HRP: 50 mM Tris pH 8, 150 mM NaCl, 1 mM beta-mercaptoethanol, 50 ug/ml BSA, 3 ug/ml yeast RNA, 0.5% heparin; ITC and FP: Tris pH 8, 200 mM KCl, 5% glycerol; MST: 50 mM Tris pH 8, 200 mM NaCl, 1 mM DTT, BSA, heparin, 0.05% Tween 20
Conditions: tags: N-terminal His-eGFP; label: 5' Cy5
ATTRIBUTE_MEASURED: Kd
Write the quantity with the unit trailing the number.

AUUAGACGUGA (ssRNA) [Cy5-rpoA-G] | 105 nM

Next item in the queue.
Noted for AUUACACGUGA (ssRNA) [Cy5-rpoA] : its Kd reads 96.3 nM
